TEST_SYSTEM: T1, full length human OX40L expressed on CHO cells (human, UniProt P23510 1-183)
T1 construct: CHO K1 stably transfected as described for CAKI cells; also called CHO-hOX40L; hOX40L expressing CHO cells
T1 sequence: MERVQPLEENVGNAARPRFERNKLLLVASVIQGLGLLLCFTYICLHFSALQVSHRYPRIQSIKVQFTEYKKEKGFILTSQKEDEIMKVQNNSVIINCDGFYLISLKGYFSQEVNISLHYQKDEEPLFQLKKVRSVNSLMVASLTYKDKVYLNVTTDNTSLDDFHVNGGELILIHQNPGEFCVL
PROCEDURE_SUMMARY: FACS binding to CHO cells, anti-c-myc detection
OUTCOME_MEASURE: EC50 (nM)
Numbers only, in nM.

BINDER: OX40L19A07 (VHH, monovalent Nanobody from E. coli; not shown: C-terminal c-myc and His6 tag) VHH: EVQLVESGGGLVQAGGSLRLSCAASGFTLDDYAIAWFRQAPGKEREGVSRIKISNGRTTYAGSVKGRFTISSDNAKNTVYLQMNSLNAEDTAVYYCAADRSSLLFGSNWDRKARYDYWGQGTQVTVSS
VALUE_UNIT: nM
EC50: 5.67

// below: EC50 requested for another binder
# EC50 (binder: OX40L19D08 (VHH, monovalent Nanobody from E. coli; not shown: C-terminal c-myc and His6 tag) VHH: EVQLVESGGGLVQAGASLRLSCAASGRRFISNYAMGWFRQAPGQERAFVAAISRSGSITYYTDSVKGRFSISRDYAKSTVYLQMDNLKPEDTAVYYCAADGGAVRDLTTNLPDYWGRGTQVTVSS ) is 2.85
